Source of measurements: ChEMBL document CHEMBL1201862

Test system: MDA-MB-231
Assay Protocol: NCI tumour cell line growth inhibition, 48 h
The source made the active and inactive calls. No stated cut-off is given here; in the data, active = GI50 up to about 1.1 µM and inactive = higher.
Quantity Measured: GI50

Molecule	GI50
CCOC(=O)/C(=C\NC(=S)Nc1ccc(OCC)cc1)C(=O)c1ccccc1	> 100 µM (inactive)

Provide GI50 values for the following items, in order.
1. O=S(=O)(O)c1c(Cl)cc(O)c2ncccc12
2. Cc1cc(C)nc(NS(=O)(=O)c2ccc(Nc3c4ccccc4nc4c(C(=O)NC(CO)(CO)CO)cccc34)cc2)n1
3. O=C1CNCCCN2CCN(CCCNCC(=O)Nc3ccc(cc3)S(=O)(=O)c3ccc(cc3)NC(=O)CNCCCN3CCN(CCCNCC(=O)Nc4ccc(cc4)S(=O)(=O)c4ccc(cc4)N1)CC3)CC2
4. O=[N+]([O-])c1cc([As](Br)c2ccc(O)c([N+](=O)[O-])c2)ccc1O
5. C=C1c2[nH]c3ccccc3c2C2C(CC)C1CCN2C (stereo unspecified)

[reply]
1: > 100 µM (inactive); 2: 32.1 µM (inactive); 3: 22.5 µM (inactive); 4: 1.39 µM (inactive); 5: 48.4 µM (inactive)

Provide GI50 values for the following items, in order.
1. CCN(C(=O)N[C@@H](CC(C)C)C(=O)NCC(=O)OC)c1ccccc1
2. CC(C)CCC1(O)O[C@H]2C[C@H]3[C@@H]4CCC5CC(=O)C=C[C@]5(C)[C@H]4CC[C@]3(C)[C@H]2[C@@H]1C (stereo partly specified)
3. COc1cccc(N(CN2CC=CC2=O)C(C)=O)c1
4. CNC(=O)CCCN(C)C(=O)CCCCC(=O)N(C)C
5. CC(=O)c1c(CO[N+](=O)[O-])[n+]([O-])c2ccccc2[n+]1[O-]
6. Cc1nc(O)c2ncn(CCO)c2n1

[reply]
> 100 µM (inactive)
14.5 µM (inactive)
> 100 µM (inactive)
> 37.8 µM (inactive)
53.7 µM (inactive)
> 100 µM (inactive)

Provide GI50 values for the following items, in order.
1. O=C(/C(=C\I)c1ccccc1)c1ccccc1
2. O=C1CC[C@@]23CC(=O)O[C@@H]2CCCC3C1 (stereo partly specified)

[reply]
3.94 µM (inactive)
> 100 µM (inactive)

Provide GI50 values for the following items, in order.
1. COc1ccc(-c2nc(N(C)C)c3ccccc3n2)cc1
2. O=C1C(Cl)C2(CC(/C=C/c3ccccc3O)=NN2c2cccc(S(=O)(=O)O)c2)N1c1nc2ccccc2s1 (stereo unspecified)
3. CC(OC(=O)NCn1cc(-c2ccccc2)nn1)c1ccccc1 (stereo unspecified)
4. O=c1ccn(C2OC(CO)C(O)C2[Se]c2ccccc2)c(=O)[nH]1 (stereo unspecified)

[reply]
["28.4 µM (inactive)", "22.5 µM (inactive)", "34.3 µM (inactive)", "> 100 µM (inactive)"]

----------
Tested on: UO-31
Assay Protocol: NCI tumour cell line growth inhibition, 48 h
Active and inactive are the calls of the source. No stated cut-off is given here; in the data, active = GI50 up to about 1.1 µM and inactive = higher.
Please answer using one outcome listed in yes (1) = active, no (0) = inactive

In [3]: df
Out[3]:
                                   compound  class_name
0  O=C1c2c[nH]nc2C(c2ccccc2)N1c1ccccc1 (stereo not given)      no (0)
1  CN(Cc1cnc2nc(N)nc(N)c2n1)c1ccc(C(=O)NCS(=O)(=O)O)cc1      no (0)
2  C/C(Cl)=N/OC(=O)Nc1ccc(F)c([N+](=O)[O-])c1      no (0)
3  COP(=O)(OC)C(=O)N1N(c2ccc([N+](=O)[O-])cc2)C(=O)C(C)NC1(NNc1ccc([N+](=O)[O-])cc1)P(=O)(OC)OC (stereo not given)      no (0)
4  CC1(C)CCCC2CC2CCC(C)(C)C1=O (stereo not given)      no (0)

[ask] // return assay outcome for COc1nc(NC2OCC(OC(C)=O)C(OC(C)=O)C2OC(C)=O)c(/N=C(\C)C(C)=O)c(=O)n1C (stereo not given)
[reply] no (0)

[ask] // return assay outcome for `COC1=C(N2CC2)C(=O)c2nc3n(c2C1=O)CCC3`
[reply] yes (1)

[ask] // return assay outcome for CC1(C)CCCC2(C)[C@@H]1CC[C@@]13CC(=O)[C@@](C)(CC[C@@H]21)C3 (stereo not given in full)
[reply] no (0)

[ask] // return assay outcome for Nc1nc2c(c(=O)[nH]1)C(c1ccc(Cl)cc1)C=C(c1ccccc1)N2 (stereo not given)
[reply] no (0)

[ask] // return assay outcome for `Cn1c2ccccc2n2c3ccccc3c(=S)c(C#N)c12`
[reply] no (0)
